Target: 5-hydroxytryptamine receptor 1A (Homo sapiens); note: assay procedure not described here
Sequence (P08908 whole entry): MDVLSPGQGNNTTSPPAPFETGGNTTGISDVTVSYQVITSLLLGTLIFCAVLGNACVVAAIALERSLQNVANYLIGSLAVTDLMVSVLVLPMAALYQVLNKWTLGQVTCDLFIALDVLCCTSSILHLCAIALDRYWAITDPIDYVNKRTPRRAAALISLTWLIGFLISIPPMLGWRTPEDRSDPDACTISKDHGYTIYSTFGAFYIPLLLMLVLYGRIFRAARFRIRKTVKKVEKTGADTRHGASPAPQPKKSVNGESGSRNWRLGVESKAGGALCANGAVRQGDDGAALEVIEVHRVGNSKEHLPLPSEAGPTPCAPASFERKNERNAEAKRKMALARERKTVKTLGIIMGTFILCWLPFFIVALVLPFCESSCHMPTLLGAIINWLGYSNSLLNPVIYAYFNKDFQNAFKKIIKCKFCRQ
Type: functional, cell-based

Compound | AC50
Cc1cccc(C)c1NC(=O)C1CCCCN1C (stereo not given) [MEPIVACAINE] | > 30 µM
O=C(Cn1ccnc1[N+](=O)[O-])NCc1ccccc1 [BENZNIDAZOLE] | > 30 µM
CCN(CC)CCNC(=O)c1cc(Cl)c(N)cc1OC [METOCLOPRAMIDE] | > 10 µM
Oc1ncnc2[nH]ncc12 [ALLOPURINOL] | > 10 µM
CCCC(CCC)C(=O)O[C@H]1C[C@H]2CC[C@@H](C1)[N+]2(C)C [ANISOTROPINE] | > 30 µM
NC(=O)C[S+]([O-])C(c1ccccc1)c1ccccc1 (stereo not given) [MODAFINIL] | > 10 µM
CC(C)NNC(=O)c1ccncc1 [IPRONIAZID] | > 30 µM
CN1C(=O)COc2c(C(=O)NC3CN4CCC3CC4)cc(Cl)cc21 (stereo not given) [AZASETRON] | > 30 µM
CN(CCCN1c2ccccc2CCc2ccccc21)CC(=O)c1ccc(Cl)cc1 [LOFEPRAMINE] | > 30 µM
O=C(O)CCn1c2c(c3ccccc31)C[C@H](NS(=O)(=O)c1ccc(F)cc1)CC2 [RAMATROBAN] | > 10 µM
